Here the recorded MIC is given for each entry.
# System: Salmonella enterica subsp. enterica serovar Abony
# test.protocol: Minimal inhibitory concentration against Salmonella abony NCTC 6017
# Format: functional
reported.property: MIC

>>> print(df.to_string())
                                    molecule                              assay_system  reported_property      result
 0  CC(=O)Nc1ccc(Oc2ccc(N3C[C@H](C/N=C(/S)NN)OC3=O)cc2F)cc1  Salmonella enterica subsp. enterica serovar Abony                MIC  > 16 µg/mL
 1  CC(=O)Nc1ccc(Sc2ccc(N3C[C@H](C/N=C(/S)NC4CC4)OC3=O)cc2F)cc1  Salmonella enterica subsp. enterica serovar Abony                MIC  > 16 µg/mL
 2  CC(=O)Nc1ccc(Sc2ccc(N3C[C@H](C/N=C(\N)S)OC3=O)cc2F)cc1  Salmonella enterica subsp. enterica serovar Abony                MIC  > 16 µg/mL
 3  CC(=O)Nc1ccc(Oc2ccc(N3C[C@H](C/N=C(\N)S)OC3=O)cc2F)cc1  Salmonella enterica subsp. enterica serovar Abony                MIC  > 16 µg/mL
 4  CO/C(S)=N\C[C@H]1CN(c2ccc(Oc3ccc(NC(C)=O)cc3)c(F)c2)C(=O)O1  Salmonella enterica subsp. enterica serovar Abony                MIC  > 16 µg/mL
 5  CC(=O)NC[C@H]1CN(c2ccc(N3CCOCC3)c(F)c2)C(=O)O1 [LINEZOLID]  Salmonella enterica subsp. enterica serovar Abony                MIC  > 16 µg/mL
 6  CC(=O)Nc1ccc(Oc2ccc(N3C[C@H](C/N=C(/S)N(C)C)OC3=O)cc2F)cc1  Salmonella enterica subsp. enterica serovar Abony                MIC  > 16 µg/mL
 7  CC(=O)Nc1ccc(Oc2ccc(N3C[C@H](C/N=C(/S)NC4CC4)OC3=O)cc2F)cc1  Salmonella enterica subsp. enterica serovar Abony                MIC  > 16 µg/mL
 8  CC(=O)Nc1ccc(Sc2ccc(N3C[C@H](C/N=C(/S)NN)OC3=O)cc2F)cc1  Salmonella enterica subsp. enterica serovar Abony                MIC  > 16 µg/mL
 9  CC(=O)NC[C@H]1CN(c2ccc(Oc3cccc(NC(C)=O)c3)c(F)c2)C(=O)O1  Salmonella enterica subsp. enterica serovar Abony                MIC  > 16 µg/mL
10  CC(=O)Nc1ccc(Sc2ccc(N3C[C@H](C/N=C(/S)N(C)C)OC3=O)cc2F)cc1  Salmonella enterica subsp. enterica serovar Abony                MIC  > 16 µg/mL
11  CC(=O)NC[C@H]1CN(c2ccc(Sc3ccc(NC(C)=O)cc3)c(F)c2)C(=O)O1  Salmonella enterica subsp. enterica serovar Abony                MIC  > 16 µg/mL
12  CO/C(S)=N\C[C@H]1CN(c2ccc(Sc3ccc(NC(C)=O)cc3)c(F)c2)C(=O)O1  Salmonella enterica subsp. enterica serovar Abony                MIC  > 16 µg/mL
13  CC(=O)NC[C@H]1CN(c2ccc(Oc3ccccc3NC(C)=O)c(F)c2)C(=O)O1  Salmonella enterica subsp. enterica serovar Abony                MIC  > 16 µg/mL
14  CC(=O)NC[C@H]1CN(c2ccc(Oc3ccc(NC(C)=O)cc3)c(F)c2)C(=O)O1  Salmonella enterica subsp. enterica serovar Abony                MIC  > 16 µg/mL

====

# System: Enterococcus faecalis
# test.protocol: Minimal inhibitory concentration against Enterococcus faecalis ATCC 29212
# Assay type: functional
Here the recorded MIC is given for each entry.
reported.property: MIC

                                  structure  reported_property      result
0  CC(=O)Nc1ccc(Sc2ccc(N3C[C@H](C/N=C(/S)NC4CC4)OC3=O)cc2F)cc1                MIC     8 µg/mL
1  CC(=O)Nc1ccc(Sc2ccc(N3C[C@H](C/N=C(/S)NN)OC3=O)cc2F)cc1                MIC     4 µg/mL
2  CC(=O)Nc1ccc(Sc2ccc(N3C[C@H](C/N=C(/S)N(C)C)OC3=O)cc2F)cc1                MIC     8 µg/mL
3  CC(=O)Nc1ccc(Oc2ccc(N3C[C@H](C/N=C(/S)NC4CC4)OC3=O)cc2F)cc1                MIC     8 µg/mL
4  CC(=O)Nc1ccc(Oc2ccc(N3C[C@H](C/N=C(/S)N(C)C)OC3=O)cc2F)cc1                MIC    16 µg/mL
5  CC(=O)NC[C@H]1CN(c2ccc(Oc3cccc(NC(C)=O)c3)c(F)c2)C(=O)O1                MIC  > 16 µg/mL
6  CC(=O)NC[C@H]1CN(c2ccc(Oc3ccc(NC(C)=O)cc3)c(F)c2)C(=O)O1                MIC     4 µg/mL
7  CO/C(S)=N\C[C@H]1CN(c2ccc(Sc3ccc(NC(C)=O)cc3)c(F)c2)C(=O)O1                MIC     4 µg/mL
8  CC(=O)Nc1ccc(Oc2ccc(N3C[C@H](C/N=C(\N)S)OC3=O)cc2F)cc1                MIC     4 µg/mL
